Origin of the recorded values: patent US12257247B2

Assay Target: VAV1 (Homo sapiens, UniProt P15498+Q96SW2)
Construct: A heterozygous VAV1 C-terminal HiBiT knock-in pool was generated at Monte Rosa Therapeutics from a clonal Jurkat cell; endogenous in cells; host or cells: Jurkat clone stably expressing LgBiT, homozygous GSPT1-G575N; heterozygous VAV1-HiBiT knock-in pool
Experiment: VAV1 degradation activity, VAV1-HiBiT knock-in Jurkat luminescence assay (Example A, Table 1)
Type: cell-based
Test Parameters: VAV1-HiBiT knock-in Jurkat cells, luminescence read at 6 and 24 hours; read-out: VAV1 DC50
Overview of reported DC50 across a group of molecules:

| Molecule | Assay Target | DC50 [nM] |
| --- | --- | --- |
| Cn1ccc(COc2ccc(-c3ccc(Cl)c(C4CCC(=O)NC4=O)c3Cl)cc2)n1 (stereo not shown) | VAV1 (Homo sapiens, UniProt P15498+Q96SW2) | 8400 |
| Cn1ccc(=O)n1Cc1ccc(-c2cccc(C3CCC(=O)NC3=O)c2Cl)cc1 (stereo not shown) | VAV1 (Homo sapiens, UniProt P15498+Q96SW2) | 74.3 |
| O=C1CCC(c2cccc(-c3ccc(N4C(=O)CC5CC54)cc3)c2Cl)C(=O)N1 (stereo not shown) | VAV1 (Homo sapiens, UniProt P15498+Q96SW2) | 291 |
| O=C1CCC(c2cccc(-c3ccc(-n4ccccc4=O)cc3)c2F)C(=O)N1 (stereo not shown) | VAV1 (Homo sapiens, UniProt P15498+Q96SW2) | 127 |

* * *

Assay Target: VAV1 (Homo sapiens, UniProt P15498+Q96SW2)
Construct: A heterozygous VAV1 C-terminal HiBiT knock-in pool was generated at Monte Rosa Therapeutics from a clonal Jurkat cell; endogenous in cells; host or cells: Jurkat clone stably expressing LgBiT, homozygous GSPT1-G575N; heterozygous VAV1-HiBiT knock-in pool
Experiment: VAV1 degradation activity, VAV1-HiBiT knock-in Jurkat luminescence assay (Example A, Table 1)
Assay type: cell-based
Test Parameters: Jurkat, VAV1-HiBiT knock-in Jurkat cells, luminescence read at 6 and 24 hours; read-out: VAV1 Dmax %
Entries and their Dmax

| Compound | Assay Target | Dmax |
| --- | --- | --- |
| O=C1CCC(c2cccc(-c3ccc(CN4C(=O)CC45CCOCC5)cc3)c2Cl)C(=O)N1 (centres unmarked) | VAV1 (Homo sapiens, UniProt P15498+Q96SW2) | 95.9% |
| O=C1CCC(c2cccc(-c3ccc(Cn4ccccc4=O)cc3)c2Cl)C(=O)N1 (centres unmarked) | VAV1 (Homo sapiens, UniProt P15498+Q96SW2) | 92% |
| CC1(Cc2ccc(-c3cccc(C4CCC(=O)NC4=O)c3Cl)cc2)COC1 (centres unmarked) | VAV1 (Homo sapiens, UniProt P15498+Q96SW2) | 94.3% |
| O=C1CCC(c2cccc(-c3cnc(Cn4ccccc4=O)c(F)c3)c2Cl)C(=O)N1 (centres unmarked) | VAV1 (Homo sapiens, UniProt P15498+Q96SW2) | 67.3% |
| O=C1CCC(c2cccc(-c3ccc(N4CCCN(CC(F)(F)F)C4=O)cc3)c2Cl)C(=O)N1 (centres unmarked) | VAV1 (Homo sapiens, UniProt P15498+Q96SW2) | 97% |
| CC1(C)COCC(=O)N1Cc1ccc(-c2cccc(C3CCC(=O)NC3=O)c2Cl)cc1 (centres unmarked) | VAV1 (Homo sapiens, UniProt P15498+Q96SW2) | 87.5% |
| O=C1CCC(c2cccc(-c3ccc4[nH]ccc4c3)c2Cl)C(=O)N1 (centres unmarked) | VAV1 (Homo sapiens, UniProt P15498+Q96SW2) | 91.7% |
| CC1(C)COCC(=O)N1c1ccc(-c2cccc(C3CCC(=O)NC3=O)c2Cl)cc1 (centres unmarked) | VAV1 (Homo sapiens, UniProt P15498+Q96SW2) | 97.4% |
| Cn1ccc(=O)n1Cc1ccc(-c2cccc(C3CCC(=O)NC3=O)c2Cl)cc1 (centres unmarked) | VAV1 (Homo sapiens, UniProt P15498+Q96SW2) | 81.7% |
| COC1CCCC(=O)N1c1ccc(-c2cccc(C3CCC(=O)NC3=O)c2Cl)cc1 (centres unmarked) | VAV1 (Homo sapiens, UniProt P15498+Q96SW2) | 97.2% |
| O=C1CCC(c2cccc(-c3ccc(N4C(=O)OCCC45CC5)cc3)c2Cl)C(=O)N1 (centres unmarked) | VAV1 (Homo sapiens, UniProt P15498+Q96SW2) | 97.9% |
| COc1ccc(-c2ccc(F)c(C3CCC(=O)NC3=O)c2F)cc1C (centres unmarked) | VAV1 (Homo sapiens, UniProt P15498+Q96SW2) | 21.4% |
| CN1CC(=O)N(Cc2ccc(-c3cccc(C4CCC(=O)NC4=O)c3Cl)cc2)CC12COC2 (centres unmarked) | VAV1 (Homo sapiens, UniProt P15498+Q96SW2) | 90% |
| O=C1CCC(c2cccc(-c3ccc(-n4c(C(F)(F)F)cccc4=O)cc3)c2Cl)C(=O)N1 (centres unmarked) | VAV1 (Homo sapiens, UniProt P15498+Q96SW2) | 99.3% |
| O=C1CCC(c2cccc(-c3ccc(OCc4cccnc4)cc3)c2Cl)C(=O)N1 (centres unmarked) | VAV1 (Homo sapiens, UniProt P15498+Q96SW2) | 96.3% |
| O=C1CCC(c2cccc(-c3ccc(OCc4cc[nH]n4)cc3)c2Cl)C(=O)N1 (centres unmarked) | VAV1 (Homo sapiens, UniProt P15498+Q96SW2) | 94.6% |
| O=C1CCC(c2cccc(-c3ccc(N4C(=O)NCCC45CCC5)cc3)c2Cl)C(=O)N1 (centres unmarked) | VAV1 (Homo sapiens, UniProt P15498+Q96SW2) | 98.3% |

* * *

Known DC50 of a selection of molecules
Assay Target: VAV1 (Homo sapiens, UniProt P15498+Q96SW2)
Construct: A heterozygous VAV1 C-terminal HiBiT knock-in pool was generated at Monte Rosa Therapeutics from a clonal Jurkat cell; endogenous in cells; host or cells: Jurkat clone stably expressing LgBiT, homozygous GSPT1-G575N; heterozygous VAV1-HiBiT knock-in pool
Experiment: VAV1 degradation activity, VAV1-HiBiT knock-in Jurkat luminescence assay (Example A, Table 1)
Type: cell-based
Test Parameters: VAV1-HiBiT knock-in Jurkat cells, luminescence read at 6 and 24 hours; read-out: VAV1 DC50 (nM), class
Description: Cells were plated at 10,000 cells per well using Multiflo (BioTek) or Multi Drop Combi (Thermo Fisher) in 384-well white solid bottom plates (Corning, 3570BC) in 25 ul volume in RPMI 1640 media (Thermo Fischer, 22400105) containing 10% FBS (Corning, 35-075-CV), 1% Penicillin/Streptomycin (ThermoFisher Scientific, 15140-122), and 1% Endurazine (Nano-Glo Endurazine Live Cell Substrate (Promega, N2571)). Cells were incubated for ˜16 hours at 37° C., 5% CO2. […]

| Molecule | DC50 |
| --- | --- |
| O=C1CC[C@@](F)(c2cccc(-c3ccc(N4CCCCC4=O)cc3)c2Cl)C(=O)N1 (single isomer, unassigned) | ≤ 100 nM |
| Cn1cnc(COc2ccc(-c3cccc(C4CCC(=O)NC4=O)c3Cl)cc2)c1 (centres unmarked) | ≤ 100 nM |
| Cn1ncc2c1CCN(c1ccc(-c3cccc(C4CCC(=O)NC4=O)c3Cl)cc1)C2=O (centres unmarked) | ≤ 100 nM |
| C[C@H]1COC(=O)N1c1ccc(-c2cccc(C3CCC(=O)NC3=O)c2Cl)cc1 (some centres unmarked) | ≤ 100 nM |
| CN1CCN(Cc2ccc(-c3cccc(C4CCC(=O)NC4=O)c3Cl)cc2)C(=O)C1 (centres unmarked) | 100 to 1000 nM |
| CC1(C)COCC(=O)N1Cc1ccc(-c2cccc(C3CCC(=O)NC3=O)c2Cl)cc1 (centres unmarked) | ≤ 100 nM |
| Cn1cnc(Cn2c(=O)oc3cc(-c4cccc(C5CCC(=O)NC5=O)c4Cl)ccc32)c1 (centres unmarked) | ≤ 100 nM |
| O=C1CCC(c2cccc(-c3ccc(N4CCCC(F)(F)C4=O)cc3)c2Cl)C(=O)N1 (centres unmarked) | ≤ 100 nM |
| O=C1CCC(c2cccc(-c3ccc(-n4c(F)cccc4=O)nc3)c2Cl)C(=O)N1 (centres unmarked) | 100 to 1000 nM |
| O=C1CCC(c2cccc(-c3ccc(CC4COC4)cc3)c2Cl)C(=O)N1 (centres unmarked) | ≤ 100 nM |
| Cc1cccc(=O)n1-c1ccc(-c2cccc(C3CCC(=O)NC3=O)c2Cl)cn1 (centres unmarked) | ≤ 100 nM |
| O=C1CCC(c2cccc(-c3ccc(OCc4c[nH]cn4)cc3)c2Cl)C(=O)N1 (centres unmarked) | ≤ 100 nM |
| CC(=O)Nc1ccc(-c2cccc(C3CCC(=O)NC3=O)c2Cl)cc1 (centres unmarked) | ≤ 100 nM |
| CN1CC(=O)N(c2ccc(-c3cccc(C4CCC(=O)NC4=O)c3Cl)cc2)CC12CC2 (centres unmarked) | ≤ 100 nM |
| O=C1CC[C@H](c2cccc(-c3ccc(-n4ccccc4=O)cc3)c2Cl)C(=O)N1 | ≤ 100 nM |
| O=C1CCC(c2cccc(-c3ccc(N4C(=O)OCC45CCC5)cc3)c2Cl)C(=O)N1 (centres unmarked) | ≤ 100 nM |
| Cn1ccc(COc2ccc(-c3cccc(C4CCC(=O)NC4=O)c3F)cc2)n1 (centres unmarked) | ≤ 100 nM |
| O=C1CCC(c2cccc(-c3ccc(CN4Cc5cnccc5C4=O)cc3)c2Cl)C(=O)N1 (centres unmarked) | ≤ 100 nM |
| O=C1CCC(c2cccc(-c3ccc(CN4C(=O)CCCC45CC5)cc3)c2Cl)C(=O)N1 (centres unmarked) | ≤ 100 nM |
| O=C1CCC(c2cccc(-c3ccc(N4C(=O)COCC45CC5)cc3)c2Cl)C(=O)N1 (centres unmarked) | ≤ 100 nM |
| Nc1ccc(-c2cccc(C3CCC(=O)NC3=O)c2Cl)cc1 (centres unmarked) | ≤ 100 nM |
| O=C1CCC(c2cccc(-c3ccc(N4CCCCC4=O)cc3)c2Cl)C(=O)N1 (centres unmarked) | ≤ 100 nM |
| COCc1ccn(C)c(=O)c1-c1ccc(-c2cccc(C3CCC(=O)NC3=O)c2Cl)cc1 (centres unmarked) | ≤ 100 nM |
| CN1CCCN(Cc2ccc(-c3cccc(C4CCC(=O)NC4=O)c3Cl)cc2F)C1=O (centres unmarked) | ≤ 100 nM |
| O=C1CCC(c2cccc(-c3ccc(-n4ccccc4=O)cc3)c2F)C(=O)N1 (centres unmarked) | 100 to 1000 nM |
| O=C1CCC(c2cccc(-c3ccc(Cn4cccn4)cc3)c2Cl)C(=O)N1 (centres unmarked) | ≤ 100 nM |
| O=C1CCC(c2cccc(-c3ccc(Cc4cncnc4)cc3)c2Cl)C(=O)N1 (centres unmarked) | ≤ 100 nM |
| Cc1c(-c2ccc(Cn3ccccc3=O)cc2)cccc1C1CCC(=O)NC1=O (centres unmarked) | > 1000 nM |
| O=C1CCC(c2cccc(-c3ccc(C(=O)N4CCC(F)(F)C4)cc3)c2Cl)C(=O)N1 (centres unmarked) | 100 to 1000 nM |
| Cn1ccc(COc2ccc(-c3ccc(Cl)c(C4CCC(=O)NC4=O)c3)c(Cl)c2)n1 (centres unmarked) | > 1000 nM |
| Cn1ccc2c1C(=O)N(Cc1ccc(-c3cccc(C4CCC(=O)NC4=O)c3Cl)cc1)CC2 (centres unmarked) | ≤ 100 nM |
| N#Cc1ccc(-c2cccc(C3CCC(=O)NC3=O)c2Cl)cc1 (centres unmarked) | 100 to 1000 nM |
| O=C1CCC(c2cccc(-c3ccc(CN4CC5CCCN5CC4=O)cc3)c2Cl)C(=O)N1 (centres unmarked) | 100 to 1000 nM |
| O=C1CCC(c2cccc(-c3ccc(N4CCCN(CC(F)F)C4=O)cc3)c2Cl)C(=O)N1 (centres unmarked) | ≤ 100 nM |
| CN1CCCN(c2ccc(-c3cccc(C4CCC(=O)NC4=O)c3Cl)cc2)C1=O (centres unmarked) | ≤ 100 nM |
